Please go through the items and note down their hIP1 GRPR EC50.
# target_of_assay: human GRP receptor (human, UniProt P30550 1-384)
# Sequence (P30550 whole entry): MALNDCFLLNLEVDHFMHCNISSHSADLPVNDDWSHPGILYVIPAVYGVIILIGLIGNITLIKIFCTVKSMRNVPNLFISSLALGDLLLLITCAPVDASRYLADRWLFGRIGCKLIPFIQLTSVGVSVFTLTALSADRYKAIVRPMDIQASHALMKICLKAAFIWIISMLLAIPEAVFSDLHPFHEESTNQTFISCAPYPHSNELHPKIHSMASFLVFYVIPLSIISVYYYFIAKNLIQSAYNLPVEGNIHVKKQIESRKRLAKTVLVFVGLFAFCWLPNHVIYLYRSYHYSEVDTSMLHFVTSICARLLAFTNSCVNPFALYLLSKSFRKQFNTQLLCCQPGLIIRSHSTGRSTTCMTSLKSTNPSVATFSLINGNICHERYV
# assay_name: cell-based or functional assay
Starred links: 1 amine or outer side, 2 acyl side, 3 side chain; linkers in the order of their positions; H or OH if unused. Non-standard residues stand in square brackets, D forms with d. Primed or numbered codes have the meaning given here. *: point of attachment. Trp(7-Me) = Cc1cccc2c(C[C@H](N)C(=O)O)c[nH]c12; C20 diacid = O=C(O)CCCCCCCCCCCCCCCCCCC(=O)*; d(γGlu) = O=C(O)[C@@H](CCC(=O)[*:2])N[*:1]; γGlu = O=C(O)[C@H](CCC(=O)[*:2])N[*:1]; Palmitoyl = CCCCCCCCCCCCCCCC(=O)*; Nle = CCCC[C@H](N)C(=O)O; PEG5′ = not defined here; ACPA = not defined here; AEEA = NCCOCCOCC(=O)O; Aib = CC(C)(N)C(=O)O; βAla = NCCC(=O)O
The figure you give is taken to be in nM; do not add the unit.

Fill in the blank: the reported hIP1 GRPR EC50 of {C20 diacid}-[γGlu][γGlu][AEEA][AEEA]E[dS]EH[Trp(7-Me)]AV[βAla]HL[Nle]-NH2 (SMILES CCCC[C@H](NC(=O)[C@H](CC(C)C)NC(=O)[C@H](Cc1c[nH]cn1)NC(=O)CCNC(=O)[C@@H](NC(=O)[C@H](C)NC(=O)[C@H](Cc1c[nH]c2c(C)cccc12)NC(=O)[C@H](Cc1c[nH]cn1)NC(=O)[C@H](CCC(=O)O)NC(=O)[C@@H](CO)NC(=O)[C@H](CCC(=O)O)NC(=O)COCCOCCNC(=O)COCCOCCNC(=O)CC[C@H](NC(=O)CC[C@H](NC(=O)CCCCCCCCCCCCCCCCCCC(=O)O)C(=O)O)C(=O)O)C(C)C)C(N)=O) [Peptide 248] is ____.
10.5

Fill in the blank: the reported hIP1 GRPR EC50 of {C20 diacid}-[γGlu][γGlu][AEEA][AEEA]GQHWAV[ACPA]HL[Nle]-NH2 (reading uncertain) [Peptide 272] is ____.
6

Fill in the blank: the reported hIP1 GRPR EC50 of Palmitoyl-[d(γGlu)][AEEA][AEEA]GNH[Trp(7-Me)]AV[Aib]HL[Nle]-NH2 (SMILES CCCCCCCCCCCCCCCC(=O)N[C@H](CCC(=O)NCCOCCOCC(=O)NCCOCCOCC(=O)NCC(=O)N[C@@H](CC(N)=O)C(=O)N[C@@H](Cc1c[nH]cn1)C(=O)N[C@@H](Cc1c[nH]c2c(C)cccc12)C(=O)N[C@@H](C)C(=O)N[C@H](C(=O)NC(C)(C)C(=O)N[C@@H](Cc1c[nH]cn1)C(=O)N[C@@H](CC(C)C)C(=O)N[C@@H](CCCC)C(N)=O)C(C)C)C(=O)O) [Peptide 22] is ____.
10.3

Fill in the blank: the reported hIP1 GRPR EC50 of {C20 diacid}-[γGlu][γGlu][PEG5′]GEH[Trp(7-Me)]AV[BABA]HL[Nle]-NH2 [Peptide 275] is ____.
12.3

Fill in the blank: the reported hIP1 GRPR EC50 of Palmitoyl-[d(γGlu)][AEEA][AEEA]GNHWAV[dA]HL[Nle]-NH2 (SMILES CCCCCCCCCCCCCCCC(=O)N[C@H](CCC(=O)NCCOCCOCC(=O)NCCOCCOCC(=O)NCC(=O)N[C@@H](CC(N)=O)C(=O)N[C@@H](Cc1c[nH]cn1)C(=O)N[C@@H](Cc1c[nH]c2ccccc12)C(=O)N[C@@H](C)C(=O)N[C@H](C(=O)N[C@H](C)C(=O)N[C@@H](Cc1c[nH]cn1)C(=O)N[C@@H](CC(C)C)C(=O)N[C@@H](CCCC)C(N)=O)C(C)C)C(=O)O) [Peptide 7] is ____.
0.6

Each recorded value in this set is attributed to patent US20260176319A1.
